System: VERO cells
ASSAY_SUMMARY: Cell viability assay (MTT), VERO
Assay type: cell-based, Cercopithecus aethiops
SETTINGS: 1.8 µg/ml, 24 h
The compounds listed here are annotated with their Viability VERO.

STRUCTURE: C/C(=N\Nc1nc(-c2ccc3[nH]c(=O)oc3c2)cs1)c1ccc(Nc2nc(N)nc(N)n2)cc1
Viability VERO: 87.85%
//
STRUCTURE: CC(=O)Nc1ccc(-c2csc(N/N=C(\C)c3ccc(Nc4nc(N)nc(N)n4)cc3)n2)cc1
Viability VERO: 90.59%
//
STRUCTURE: C/C(=N\Nc1nc(-c2cc3ccccc3oc2=O)cs1)c1ccc(Nc2nc(N)nc(N)n2)cc1
Viability VERO: 100.84%
//
STRUCTURE: C/C(=N\Nc1nc(-c2ccc(NS(C)(=O)=O)cc2)cs1)c1ccc(Nc2nc(N)nc(N)n2)cc1
Viability VERO: 93.81%

----------
ASSAY_SUMMARY: Cell viability assay (MTT), VERO
Type: cell-based, Cercopithecus aethiops
SETTINGS: African green monkey (Cercopithecus aethiops), VERO kidney epithelial cells, 7.8 µg/ml
The molecules listed here are annotated with their viability at 24 h, 7.8 µg/ml.

MOLECULE: C/C(=N\Nc1nc(-c2ccc([N+](=O)[O-])cc2)cs1)c1ccc(Nc2nc(N)nc(N)n2)cc1 [Compound 4h]
viability at 24 h, 7.8 µg/ml / %: 109
--
MOLECULE: C/C(=N\NC(N)=S)c1ccc(Nc2nc(N)nc(N)n2)cc1 [Compound 3]
viability at 24 h, 7.8 µg/ml / %: 88.8
--
MOLECULE: C/C(=N\Nc1nc(-c2ccc(Br)cc2)cs1)c1ccc(Nc2nc(N)nc(N)n2)cc1 [Compound 4d]
viability at 24 h, 7.8 µg/ml / %: 86
--
MOLECULE: C/C(=N\Nc1nc(-c2ccc(Cl)cc2)cs1)c1ccc(Nc2nc(N)nc(N)n2)cc1 [Compound 4b]
viability at 24 h, 7.8 µg/ml / %: 94.7
--
MOLECULE: C/C(=N\Nc1nc(-c2ccc(C)cc2)cs1)c1ccc(Nc2nc(N)nc(N)n2)cc1 [Compound 4c]
viability at 24 h, 7.8 µg/ml / %: 101
--
MOLECULE: C/C(=N\Nc1nc(-c2ccc(F)cc2)cs1)c1ccc(Nc2nc(N)nc(N)n2)cc1 [Compound 4a]
viability at 24 h, 7.8 µg/ml / %: 95.9
--
MOLECULE: C/C(=N\Nc1nc(-c2ccc(Cl)c(Cl)c2)cs1)c1ccc(Nc2nc(N)nc(N)n2)cc1 [Compound 4i]
viability at 24 h, 7.8 µg/ml / %: 92.6
--
MOLECULE: C/C(=N\Nc1nc(-c2ccccc2)cs1)c1ccc(Nc2nc(N)nc(N)n2)cc1 [Compound 4k]
viability at 24 h, 7.8 µg/ml / %: 95.7
--
MOLECULE: C/C(=N\Nc1nc(-c2ccc(I)cc2)cs1)c1ccc(Nc2nc(N)nc(N)n2)cc1 [Compound 4e]
viability at 24 h, 7.8 µg/ml / %: 87.3

----------
ASSAY_SUMMARY: Cell viability assay (MTT), L929
Type: cell-based, Mus musculus
SETTINGS: mouse, L929 fibroblast cells, 0.9 µg/ml

STRUCTURE: C/C(=N\Nc1nc(-c2ccc(Br)cc2)cs1)c1ccc(Nc2nc(N)nc(N)n2)cc1
UNIT_ANNOTATION: %
viability at 24 h, 0.9 µg/ml: 99.9
//
STRUCTURE: C/C(=N\Nc1nc(-c2ccc(I)cc2)cs1)c1ccc(Nc2nc(N)nc(N)n2)cc1
UNIT_ANNOTATION: %
viability at 24 h, 0.9 µg/ml: 96
//
STRUCTURE: C/C(=N\Nc1nc(-c2ccc(F)cc2)cs1)c1ccc(Nc2nc(N)nc(N)n2)cc1
UNIT_ANNOTATION: %
viability at 24 h, 0.9 µg/ml: 96.6
//
STRUCTURE: C/C(=N\Nc1nc(-c2ccc(Cl)cc2)cs1)c1ccc(Nc2nc(N)nc(N)n2)cc1
UNIT_ANNOTATION: %
viability at 24 h, 0.9 µg/ml: 94.8
//
STRUCTURE: C/C(=N\Nc1nc(-c2ccc(C)cc2)cs1)c1ccc(Nc2nc(N)nc(N)n2)cc1
UNIT_ANNOTATION: %
viability at 24 h, 0.9 µg/ml: 98.2
//
STRUCTURE: C/C(=N\Nc1nc(-c2ccccc2)cs1)c1ccc(Nc2nc(N)nc(N)n2)cc1
UNIT_ANNOTATION: %
viability at 24 h, 0.9 µg/ml: 109
//
STRUCTURE: C/C(=N\NC(N)=S)c1ccc(Nc2nc(N)nc(N)n2)cc1
UNIT_ANNOTATION: %
viability at 24 h, 0.9 µg/ml: 110
//
STRUCTURE: C/C(=N\Nc1nc(-c2ccc([N+](=O)[O-])cc2)cs1)c1ccc(Nc2nc(N)nc(N)n2)cc1
UNIT_ANNOTATION: %
viability at 24 h, 0.9 µg/ml: 100
//
STRUCTURE: C/C(=N\Nc1nc(-c2ccc(Cl)c(Cl)c2)cs1)c1ccc(Nc2nc(N)nc(N)n2)cc1
UNIT_ANNOTATION: %
viability at 24 h, 0.9 µg/ml: 101

----------
The molecules listed here are annotated with their viability at 24 h, 15.6 µg/ml.
ASSAY_SUMMARY: Cell viability assay (MTT), VERO
Type: cell-based, Cercopithecus aethiops
SETTINGS: African green monkey (Cercopithecus aethiops), VERO kidney epithelial cells, 15.6 µg/ml
Procedure: […] The effects of tested compounds on the viability of mouse fibroblasts L929 and […] VERO cells were evaluated using the MTT assay. […] Optical density (OD) was read on the ELISA reader (Multiskan EX, Labsystems; http://www.mtxlsi.com/multiskan_EX.htm) at 550 nm. The results were expressed as percentage viability compared with the treated 2.5% DMSO controls. […]

MOLECULE: C/C(=N\Nc1nc(-c2ccc(I)cc2)cs1)c1ccc(Nc2nc(N)nc(N)n2)cc1 [Compound 4e]
viability at 24 h, 15.6 µg/ml [%]: 101
//
MOLECULE: C/C(=N\Nc1nc(-c2ccc(F)cc2)cs1)c1ccc(Nc2nc(N)nc(N)n2)cc1 [Compound 4a]
viability at 24 h, 15.6 µg/ml [%]: 103
//
MOLECULE: C/C(=N\Nc1nc(-c2ccc(Cl)cc2)cs1)c1ccc(Nc2nc(N)nc(N)n2)cc1 [Compound 4b]
viability at 24 h, 15.6 µg/ml [%]: 103
//
MOLECULE: C/C(=N\Nc1nc(-c2ccc(C)cc2)cs1)c1ccc(Nc2nc(N)nc(N)n2)cc1 [Compound 4c]
viability at 24 h, 15.6 µg/ml [%]: 99.6
//
MOLECULE: C/C(=N\Nc1nc(-c2ccc([N+](=O)[O-])cc2)cs1)c1ccc(Nc2nc(N)nc(N)n2)cc1 [Compound 4h]
viability at 24 h, 15.6 µg/ml [%]: 110
//
MOLECULE: C/C(=N\Nc1nc(-c2ccc(Cl)c(Cl)c2)cs1)c1ccc(Nc2nc(N)nc(N)n2)cc1 [Compound 4i]
viability at 24 h, 15.6 µg/ml [%]: 97.3
//
MOLECULE: C/C(=N\NC(N)=S)c1ccc(Nc2nc(N)nc(N)n2)cc1 [Compound 3]
viability at 24 h, 15.6 µg/ml [%]: 89.5
//
MOLECULE: C/C(=N\Nc1nc(-c2ccccc2)cs1)c1ccc(Nc2nc(N)nc(N)n2)cc1 [Compound 4k]
viability at 24 h, 15.6 µg/ml [%]: 104
//
MOLECULE: C/C(=N\Nc1nc(-c2ccc(Br)cc2)cs1)c1ccc(Nc2nc(N)nc(N)n2)cc1 [Compound 4d]
viability at 24 h, 15.6 µg/ml [%]: 104

----------
The compounds listed here are annotated with their viability at 24 h, 1.8 µg/ml.
ASSAY_SUMMARY: Cell viability assay (MTT), VERO
Format: cell-based, Cercopithecus aethiops
SETTINGS: African green monkey (Cercopithecus aethiops), VERO kidney epithelial cells, 1.8 µg/ml
VALUE_KIND: viability at 24 h, 1.8 µg/ml (%)

STRUCTURE: C/C(=N\Nc1nc(-c2ccc(Cl)cc2)cs1)c1ccc(Nc2nc(N)nc(N)n2)cc1
OBSERVED_RESULT: 95.8
//
STRUCTURE: C/C(=N\Nc1nc(-c2ccccc2)cs1)c1ccc(Nc2nc(N)nc(N)n2)cc1
OBSERVED_RESULT: 95.5
//
STRUCTURE: C/C(=N\Nc1nc(-c2ccc(I)cc2)cs1)c1ccc(Nc2nc(N)nc(N)n2)cc1
OBSERVED_RESULT: 100
//
STRUCTURE: C/C(=N\NC(N)=S)c1ccc(Nc2nc(N)nc(N)n2)cc1
OBSERVED_RESULT: 94
//
STRUCTURE: C/C(=N\Nc1nc(-c2ccc([N+](=O)[O-])cc2)cs1)c1ccc(Nc2nc(N)nc(N)n2)cc1
OBSERVED_RESULT: 99.4
//
STRUCTURE: C/C(=N\Nc1nc(-c2ccc(F)cc2)cs1)c1ccc(Nc2nc(N)nc(N)n2)cc1
OBSERVED_RESULT: 97.6
//
STRUCTURE: C/C(=N\Nc1nc(-c2ccc(Cl)c(Cl)c2)cs1)c1ccc(Nc2nc(N)nc(N)n2)cc1
OBSERVED_RESULT: 93.7
//
STRUCTURE: C/C(=N\Nc1nc(-c2ccc(Br)cc2)cs1)c1ccc(Nc2nc(N)nc(N)n2)cc1
OBSERVED_RESULT: 94.4
//
STRUCTURE: C/C(=N\Nc1nc(-c2ccc(C)cc2)cs1)c1ccc(Nc2nc(N)nc(N)n2)cc1
OBSERVED_RESULT: 102
